Some binders, each annotated with its measured Kd.
- assay_system: T1, human IFN-ω (human, UniProt P05000 24-195)
- T1 construct: also called interferon omega
- measurement_notes: ProteOn, one antigen concentration
Give the value in nM but do not write nM after it.

Worked cases, Kd given:
binder | Kd, nM
IFWM3306 (antibody, V domains shown, VH IFWH591, VL IFWL1000; converted mAb; also called IFWB3041) VH: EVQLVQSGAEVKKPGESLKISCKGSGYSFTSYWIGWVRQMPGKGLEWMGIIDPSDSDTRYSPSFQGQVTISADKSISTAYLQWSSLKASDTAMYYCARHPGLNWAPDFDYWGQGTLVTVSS VL: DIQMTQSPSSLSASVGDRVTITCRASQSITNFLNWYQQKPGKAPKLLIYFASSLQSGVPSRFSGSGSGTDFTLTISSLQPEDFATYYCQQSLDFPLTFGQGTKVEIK | 0.02
IFWM3292 (antibody, V domains shown, VH IFWH624, VL IFWL999; converted mAb; also called IFWB3027) VH: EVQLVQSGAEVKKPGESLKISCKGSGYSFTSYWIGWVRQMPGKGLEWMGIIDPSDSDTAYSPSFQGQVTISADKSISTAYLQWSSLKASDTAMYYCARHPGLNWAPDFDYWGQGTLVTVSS VL: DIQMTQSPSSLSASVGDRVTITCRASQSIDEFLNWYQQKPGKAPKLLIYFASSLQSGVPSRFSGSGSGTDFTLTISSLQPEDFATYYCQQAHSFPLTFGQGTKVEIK | 0.018
IFWM3350 (antibody, V domains shown, VH IFWH624, VL IFWL1009; converted mAb; also called IFWB3085) VH: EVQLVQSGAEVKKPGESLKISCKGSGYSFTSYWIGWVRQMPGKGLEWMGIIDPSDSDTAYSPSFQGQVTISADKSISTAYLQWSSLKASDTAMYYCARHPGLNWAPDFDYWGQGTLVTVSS VL: DIQMTQSPSSLSASVGDRVTITCRASQSIDDFLNWYQQKPGKAPKLLIYFASSLQSGVPSRFSGSGSGTDFTLTISSLQPEDFATYYCQQSHTLPLTFGQGTKVEIK | 0.02

// query Please report the measured Kd for IFWM3334 (antibody, V domains shown, VH IFWH591, VL IFWL1082; converted mAb; also called IFWB3069) VH: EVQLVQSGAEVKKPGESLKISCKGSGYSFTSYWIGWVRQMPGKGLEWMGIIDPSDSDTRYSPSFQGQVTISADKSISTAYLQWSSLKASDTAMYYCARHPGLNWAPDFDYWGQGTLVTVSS VL: DIQMTQSPSSLSASVGDRVTITCRASQSIRNNSLNWYQQKPGKAPKLLIYAASSLQSGVPSRFSGSGSGTDFTLTISSLQPEDFATYYCQQDYNWPLTFGQGTKVEIK
// result 0.345

// query Given the binder IFWM3319 (antibody, V domains shown, VH IFWH591, VL IFWL1041; converted mAb; also called IFWB3054) VH: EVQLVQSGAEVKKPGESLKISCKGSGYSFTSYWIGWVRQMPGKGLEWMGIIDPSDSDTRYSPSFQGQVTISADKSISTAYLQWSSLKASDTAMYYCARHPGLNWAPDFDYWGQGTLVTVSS VL: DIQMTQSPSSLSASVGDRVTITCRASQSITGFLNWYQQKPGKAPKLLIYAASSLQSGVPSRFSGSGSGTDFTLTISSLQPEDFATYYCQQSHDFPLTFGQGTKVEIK , write its reported Kd.
// result 0.034
